In this section we review reported LDH % toxicity (50 μM dose) values for a set of molecules.
# System: HEK293 cells overexpressing 17β-HSD10
# test-method-notes: LDH cytotoxicity assay
# Format: cell-based, human
# stated-conditions: 50 μM compound, 24 h, n = 3 ± SD
API: value field is a number in %; no unit string.

As a guide, the following entries are already answered.
{"molecule": "O=C(c1sccc1Cl)N1CCCC1c1ccccc1-c1cc(O)cc(F)c1 (racemic) [ESC1002776]", "test-result": 20.00}
{"molecule": "Cc1ccsc1C(=O)N(CC(C)C)c1cccc(N(C)Cc2c[nH]cn2)c1", "test-result": 4.98}
{"molecule": "O=C(c1sccc1Cl)N1CCC[C@H]1c1ccccc1-c1cc(O)ccc1F", "test-result": 5.90}
{"molecule": "CC(C)CN(C(=O)c1c(F)cccc1F)c1cccc(N(C)Cc2c[nH]cn2)c1", "test-result": 4.78}
{"molecule": "COc1cccc(-c2ccccc2C2CCCN2C(=O)c2sccc2Cl)c1 (racemic) [ESC1002432]", "test-result": 4.24}

Enter LDH % toxicity (50 μM dose) (test system HEK293 cells overexpressing 17β-HSD10) for COc1cccc(-c2ccccc2C2CCCN2C(=O)c2sccc2C)c1 (stereo not drawn) [ESC1002338] 4.64

Quote HEK293 cells overexpressing 17β-HSD10 LDH % toxicity (50 μM dose) for entry O=C(c1sccc1Cl)N1CCCC1c1ccccc1-c1cc(O)cc(F)c1 (stereo not drawn) [ESC1002801] . 5.50

Fill in: LDH % toxicity (50 μM dose) on HEK293 cells overexpressing 17β-HSD10, entry "Cc1nc[nH]c1CN(C)c1cccc(N(CC(C)C)C(=O)c2ccccc2F)c1" 5.05

For HEK293 cells overexpressing 17β-HSD10, give the measured LDH % toxicity (50 μM dose) of the entry "COc1ccc(-c2ccccc2[C@H]2CCCN2C(=O)c2sccc2C)cn1" 6.84

Send back HEK293 cells overexpressing 17β-HSD10 LDH % toxicity (50 μM dose) of "COc1ccc(C(=O)N(CC(C)C)c2cccc(N(C)Cc3c[nH]cn3)c2)c(F)c1" only. 5.19

Consider the molecule "Cc1ncc(CN(C)c2cccc(N(CC(C)C)C(=O)c3ccccc3F)c2)[nH]1" tested on HEK293 cells overexpressing 17β-HSD10; state its LDH % toxicity (50 μM dose). 6.64

Report value only: LDH % toxicity (50 μM dose), HEK293 cells overexpressing 17β-HSD10, "O=C(c1sccc1Cl)N1CCC[C@H]1c1ccccc1-c1cccc(O)c1" 4.49
